Biological target: human GRIN1 (transcript variant NR1-3) and GRIN2D expressed in Xenopus oocytes (Homo sapiens, UniProt O15399)
Construct: GenScript (GRIN2D synthesis) SC115601; host or cells: Xenopus oocytes injected with cRNA (1 GluN1 : 2 GluN2)
Sequence (O15399 28-1336, other chains not shown): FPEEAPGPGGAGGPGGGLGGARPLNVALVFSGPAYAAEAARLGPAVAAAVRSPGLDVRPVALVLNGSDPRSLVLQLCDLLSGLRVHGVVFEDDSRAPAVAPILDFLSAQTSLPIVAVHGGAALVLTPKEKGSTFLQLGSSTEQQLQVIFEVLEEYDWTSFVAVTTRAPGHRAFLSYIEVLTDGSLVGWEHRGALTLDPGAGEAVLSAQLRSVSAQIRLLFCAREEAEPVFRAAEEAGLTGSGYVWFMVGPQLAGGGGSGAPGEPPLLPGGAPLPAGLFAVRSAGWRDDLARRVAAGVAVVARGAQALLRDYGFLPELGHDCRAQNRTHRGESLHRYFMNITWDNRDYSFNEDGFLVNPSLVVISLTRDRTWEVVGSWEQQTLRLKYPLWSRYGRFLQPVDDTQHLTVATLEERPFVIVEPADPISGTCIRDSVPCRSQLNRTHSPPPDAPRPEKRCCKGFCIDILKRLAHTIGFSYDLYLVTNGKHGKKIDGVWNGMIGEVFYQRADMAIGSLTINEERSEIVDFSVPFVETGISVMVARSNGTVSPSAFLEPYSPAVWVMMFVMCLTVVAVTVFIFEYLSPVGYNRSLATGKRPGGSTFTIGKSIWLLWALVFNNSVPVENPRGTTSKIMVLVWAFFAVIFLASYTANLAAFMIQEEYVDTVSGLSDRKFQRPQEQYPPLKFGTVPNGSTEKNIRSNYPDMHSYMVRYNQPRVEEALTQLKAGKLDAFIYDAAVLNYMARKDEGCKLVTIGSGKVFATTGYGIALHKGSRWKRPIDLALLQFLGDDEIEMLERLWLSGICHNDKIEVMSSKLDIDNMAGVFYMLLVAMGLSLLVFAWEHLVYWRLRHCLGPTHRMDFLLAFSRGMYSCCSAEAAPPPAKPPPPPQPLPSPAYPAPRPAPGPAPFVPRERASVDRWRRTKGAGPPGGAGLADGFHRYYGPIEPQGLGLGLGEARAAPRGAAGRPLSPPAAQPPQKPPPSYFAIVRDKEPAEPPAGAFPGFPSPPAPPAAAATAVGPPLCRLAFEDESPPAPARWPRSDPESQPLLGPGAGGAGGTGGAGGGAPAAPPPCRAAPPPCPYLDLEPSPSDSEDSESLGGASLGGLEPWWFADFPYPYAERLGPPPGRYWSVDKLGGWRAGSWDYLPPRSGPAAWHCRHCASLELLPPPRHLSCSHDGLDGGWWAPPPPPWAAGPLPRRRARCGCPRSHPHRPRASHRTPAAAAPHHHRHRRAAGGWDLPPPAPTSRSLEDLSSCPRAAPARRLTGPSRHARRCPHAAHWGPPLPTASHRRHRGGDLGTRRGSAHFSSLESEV
Assay: NR2D oocyte potentiation assay (two-electrode voltage clamp)
Assay type: cell-based
Settings: 10 uM test compound; glutamate and glycine 10 μM each; holding potential −40 mV
Attribute: activation at 10 µM

In the examples that follow, each entry is paired with its recorded activation at 10 µM.
C[C@@H]1CSc2nc(-c3ccc(C(C)(C)N(C)C)nc3)c(C#N)c(=O)n2C1 [Example 134] ... < 10%
CC(C)(C)c1ccc(-c2nc3n(c(=O)c2C#N)CC(O)CS3)cc1 (stereo not drawn) [Example 200] ... < 10%

The measured activation at 10 µM associated with CC(C)(C)c1ccc(-c2nc3n(c(=O)c2C#N)CCS3)cn1 [Example 1] reads 100 to 500%

For CC(C)(C)OC(=O)NCC1CSc2nc(-c3ccc(C(C)(C)C)nc3)c(C#N)c(=O)n2C1 (stereo not drawn) [Example 144] the molecule record lists activation at 10 µM as > 1000%

Looking up C[C@@H]1CSc2nc(-c3cnc(C(C)(C)C)c(O)c3)c(C#N)c(=O)n2C1 [Example 140] , I see its activation at 10 µM listed as 500 to 1000%

For CC1CCn2c(nc(-c3ccc(C(C)(C)C)nc3)c(C#N)c2=O)S1 (stereo not drawn) [Example 93] the molecule record lists activation at 10 µM as 500 to 1000%

For reference, reported activation at 10 µM for Cc1nc(C(C)(C)C)ccc1-c1nc2n(c(=O)c1C#N)CCCS2 [Example 182] stands at 10 to 100%

Noted for CC(C)(C)c1ncc(-c2nc3n(c(=O)c2C#N)CCCS3)cc1O [Example 127] : its activation at 10 µM reads > 1000%

Short answer for COCC1CSc2nc(-c3cnc(C(C)(C)C)nc3)c(C#N)c(=O)n2C1 (stereo not drawn) [Example 124] : activation at 10 µM was 500 to 1000%

----------
Listed below: activation at 10 µM values for each entry.
Target: human GRIN1 (transcript variant NR1-3) and GRIN2D expressed in Xenopus oocytes (Homo sapiens)
Construct: GenScript (GRIN2D synthesis) SC115601; host or cells: Xenopus oocytes injected with cRNA (1 GluN1 : 2 GluN2)
Assay: NR2D oocyte potentiation assay (two-electrode voltage clamp)
Type: cell-based
Settings: 10 uM test compound; glutamate and glycine 10 μM each; holding potential −40 mV

CC1CSc2nc(-c3ccc(C(C)(C)C)nc3)c(C#N)c(=O)n2C1 (stereo not shown) [Example 175] ... > 1000%
CC(C)(C)c1ncc(-c2nc3n(c(=O)c2C#N)C[C@@H](CO)CS3)cc1F [Example 157] ... > 1000%
COCOC[C@H]1CSc2nc(-c3cnc(C(C)(C)C)c(F)c3)c(C#N)c(=O)n2C1 [Example 171] ... > 1000%
CC(C)(C)c1ncc(-c2nc3n(c(=O)c2C#N)C[C@H](CO)CS3)cc1F [Example 158] ... > 1000%
CC(CF)(CF)c1ccc(-c2nc3n(c(=O)c2C#N)CCCS3)cn1 [Example 156] ... 100 to 500%
C[C@H]1CSc2nc(-c3ccc(C4(C)CC4)nc3)c(C#N)c(=O)n2C1 [Example 115] ... 100 to 500%
CNC(=O)C1CSc2nc(-c3cnc(C(C)(C)C)c(F)c3)c(C#N)c(=O)n2C1 (stereo not shown) [Example 163] ... > 1000%
CC(C)(C#N)c1ccc(-c2nc3n(c(=O)c2C#N)CCCS3)cn1 [Example 78] ... 10 to 100%
CC(=O)NCC1CSc2nc(-c3cnc(C(C)(C)C)c(F)c3)c(C#N)c(=O)n2C1 (stereo not shown) [Example 146] ... > 1000%
CC(C)(C)c1ncc(-c2nc3n(c(=O)c2C#N)CCS3)cn1 [Example 4] ... 100 to 500%

Notebook: CC(C)(C)c1ccc(-c2nc3n(c(=O)c2C#N)C[C@H](CF)CS3)cn1 [Example 132] , activation at 10 µM read as 100 to 500%

# activation at 10 µM (compound: CC(C)(C)c1ccc(-c2nc3n(c(=O)c2C#N)CCCO3)cn1 [Example 77] ) is 10 to 100%

Record summary for COc1cc(C(C)(C)C)ccc1-c1nc2n(c(=O)c1C#N)CCCS2 [Example 193] : reported activation at 10 µM = 100 to 500%

The measured activation at 10 µM associated with CC1CSc2cc(-c3ccc(C(C)(C)C)nc3)c(C#N)c(=O)n2C1 (stereo not shown) [Example 69] reads > 1000%

activation at 10 µM reported for this compound CC1CSc2cc(-c3cnc(C4(C)CC4)c(F)c3)c(C#N)c(=O)n2C1 (stereo not shown) [Example 135] : > 1000%

----------
Reported Emax values are given for each entry in this list.
Biological target: human GRIN1 (variant NR1-3) and GRIN2D expressed in HEK293 cells (Homo sapiens, UniProt O15399)
Construct: GenScript (GRIN2D synthesis) SC115601; host or cells: HEK293
Sequence (O15399 28-1336, other chains not shown): as above
Test: GluN2D PAM CIQ fluorescence assay (Fluo-8 calcium, FDSS 6000)
Assay type: cell-based
Settings: relative to CIQ (100 uM) = 100%, read-out: NR2D Percent CIQ Avg Max Measured Effect

Form field Emax, entry COc1ccccc1-c1nc2n(c(=O)c1C#N)CCCS2 [Example 188] : 10 to 50%

Sure, the documented Emax for CC(C)(C)c1ncc(-c2nc3ccccn3c(=O)c2C#N)cn1 [Example 20] is 100 to 200%

Record summary for CC1CSc2nc(-c3cnc(C(C)(C)C)nc3)c(C#N)c(=N)n2C1 (centres unmarked) [Example 39] : reported Emax = > 200%

// field: Emax; key: CC(C)(C)c1ccc(-c2nc3n(c(=O)c2C#N)CCS3)cc1 [Example 205] ; value = 100 to 200%

Entry CC1CSc2nc(-c3cnc(C(C)(C)C)nc3)c(C#N)c(=O)n2C1 (centres unmarked) [Example 49] — recorded Emax = > 200%

----------
Target: human GRIN1 (transcript variant NR1-3) and GRIN2D expressed in Xenopus oocytes (Homo sapiens, UniProt O15399)
Construct: GenScript (GRIN2D synthesis) SC115601; host or cells: Xenopus oocytes injected with cRNA (1 GluN1 : 2 GluN2)
Test: NR2D oocyte potentiation assay (two-electrode voltage clamp)
Format: cell-based
Conditions: 10 uM test compound; glutamate and glycine 10 μM each; holding potential −40 mV
Metric Name: activation at 10 µM

Sample records with activation at 10 µM:
Cc1c(-c2ccc(C(C)(C)C)cc2)nc2n(c1=O)CCCS2 [Example 29] ... 10 to 100%
CSc1c(-c2ccc(C(C)(C)C)cc2)nc2n(c1=O)CCCC2 [Example 25] ... < 10%

So, CC(C)(C)c1ccc(-c2nc3n(c(=O)c2C#N)CCS3)cc1 [Example 205] ? Its activation at 10 µM was 100 to 500%

The molecule listed as CC(=O)NC[C@@H]1CSc2nc(-c3cnc(C(C)(C)C)c(F)c3)c(C#N)c(=O)n2C1 [Example 169] has a reported activation at 10 µM of > 1000%

// sample CN(C)C(C)(C)c1ccc(-c2nc3n(c(=O)c2C#N)CCCS3)cn1 [Example 128] , its activation at 10 µM was < 10%

Form: molecule = CC(C)(C)c1ncc(-c2nc3n(c(=O)c2C#N)CCCS3)cn1 [Example 176] ; activation at 10 µM = 500 to 1000%

----------
Molecular target: human GRIN1 (transcript variant NR1-3) and GRIN2D expressed in Xenopus oocytes (Homo sapiens)
Construct: GenScript (GRIN2D synthesis) SC115601; host or cells: Xenopus oocytes injected with cRNA (1 GluN1 : 2 GluN2)
Assay: NR2D oocyte potentiation assay (two-electrode voltage clamp)
Assay type: cell-based
Details: 10 uM test compound; glutamate and glycine 10 μM each; holding potential −40 mV
Metric Name: activation at 10 µM

CC1CSc2nc(-c3cnc(C(C)(C)C)nc3)c(C#N)c(=N)n2C1 (stereo not drawn) ... > 1000%
CC(C)(C)c1ccc(-c2nc3n(c(=O)c2Br)CCCC3)cc1 ... < 10%
C[C@@H]1CSc2nc(-c3cnc(C(C)(C)C)c(F)c3)c(C#N)c(=O)n2C1 ... > 1000%
CC1CSc2nc(-c3cnc(C(C)(C)C)c(F)c3)c(C#N)c(=O)n2C1 (stereo not drawn) ... > 1000%

Record `C[C@@H]1CSc2nc(-c3cnc(C(C)(C)C)c(F)c3)c(C#N)c(=N)n2C1` , field activation at 10 µM: > 1000%

Given item `CN(C)C(=O)/N=c1/c(C#N)c(-c2ccc(C(C)(C)C)cc2)nc2n1CCCS2` , the value recorded as its activation at 10 µM is 100 to 500%
